Target: human AMPK (α2β1γ1) (Homo sapiens, UniProt P54619+P54646+Q9Y478)
Sequence (P54646 whole entry): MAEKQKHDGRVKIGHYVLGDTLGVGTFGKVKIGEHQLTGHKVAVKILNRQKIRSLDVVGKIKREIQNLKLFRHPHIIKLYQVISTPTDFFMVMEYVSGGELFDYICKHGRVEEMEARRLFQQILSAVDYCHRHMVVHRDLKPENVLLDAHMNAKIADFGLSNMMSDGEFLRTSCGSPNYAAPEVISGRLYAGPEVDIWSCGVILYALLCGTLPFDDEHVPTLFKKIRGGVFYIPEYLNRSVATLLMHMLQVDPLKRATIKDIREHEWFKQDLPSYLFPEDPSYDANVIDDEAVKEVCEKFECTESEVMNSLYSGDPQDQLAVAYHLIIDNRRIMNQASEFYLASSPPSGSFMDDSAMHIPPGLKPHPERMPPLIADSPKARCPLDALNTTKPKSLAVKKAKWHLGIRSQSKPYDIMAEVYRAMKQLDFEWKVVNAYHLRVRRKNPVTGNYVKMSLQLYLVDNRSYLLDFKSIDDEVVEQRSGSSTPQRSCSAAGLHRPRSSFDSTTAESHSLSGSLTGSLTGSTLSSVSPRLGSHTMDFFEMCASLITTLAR
Sequence (Q9Y478 whole entry): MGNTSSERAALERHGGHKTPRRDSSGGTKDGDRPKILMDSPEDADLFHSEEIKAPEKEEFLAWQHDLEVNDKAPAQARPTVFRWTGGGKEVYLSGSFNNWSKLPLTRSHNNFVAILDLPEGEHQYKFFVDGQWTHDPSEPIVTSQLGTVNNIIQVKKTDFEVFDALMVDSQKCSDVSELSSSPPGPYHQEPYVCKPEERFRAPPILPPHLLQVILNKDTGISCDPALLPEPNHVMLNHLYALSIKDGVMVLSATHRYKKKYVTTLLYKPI
Sequence (P54619 whole entry): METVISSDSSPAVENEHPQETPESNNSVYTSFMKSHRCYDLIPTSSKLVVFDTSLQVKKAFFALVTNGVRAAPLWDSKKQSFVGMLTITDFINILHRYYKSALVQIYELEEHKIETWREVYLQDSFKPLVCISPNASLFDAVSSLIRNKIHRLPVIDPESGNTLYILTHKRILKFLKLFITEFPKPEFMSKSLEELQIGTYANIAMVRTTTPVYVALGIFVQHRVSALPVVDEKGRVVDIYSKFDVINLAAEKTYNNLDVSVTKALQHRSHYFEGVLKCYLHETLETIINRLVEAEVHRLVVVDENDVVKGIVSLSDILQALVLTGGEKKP
Experiment: AMPK (α2β1γ1) activation at molecular level, HTRF KinEASE-STK S1 kinase assay
Conditions: activation of human AMPK (α2β1γ1), 4 μM ATP, 45 min at 30° C.
observationType: EC50 (µM)

Answered cases to consult:
[[record]]
compound = "COc1cc(CNC(=O)c2ccc(CN3C=C4C(=O)N(c5ccc(F)c(C(F)(F)F)c5)N=C4CC3)cc2)ccc1O"
unitofmeasure = "µM"
numericvalue = 8.6

[[record]]
compound = "COc1cc(CNC(=O)c2ccc(CN3C=C4C(=O)N(c5ccc(F)c(C(F)(F)F)c5)N=C4CC3)cc2)ccc1OC(C)C"
unitofmeasure = "µM"
numericvalue = 9.7

[[record]]
compound = "COc1ccc(CN(C)C(=O)c2ccc(CN3C=C4C(=O)N(c5ccc(F)c(C(F)(F)F)c5)N=C4CC3)cc2)cc1OC"
unitofmeasure = "µM"
numericvalue = 1.1

[[record]]
compound = "COc1ccc(CNC(=O)c2ccc(CN3C=C4C(=O)N(c5ccc(F)c(C(F)(F)F)c5)N=C4CC3)cc2)cc1OC(F)F"
unitofmeasure = "µM"
numericvalue = 4.1


1: CCOc1ccc(CNC(=O)c2ccc(CN3CCc4c(c(=O)n(-c5ccc(F)c(C(F)(F)F)c5)n4C)C3)cc2)cc1OC
2: COc1ccc(CNC(=O)c2ccc(CN3C=C4C(=O)N(c5ccc(S(N)(=O)=O)cc5)N=C4CC3)cc2)cc1OC
Data request: Of 1 and 2 , which shows the smaller EC50 value? Give the chosen item's label as your response.
Data returned: 1
(1: 2.5 µM, 2: 9.5 µM)
